Tested on: MDA-MB-231
Test name: Antiproliferative activity against human MDA-MB-231 cells assessed as inhibition of cell proliferation incubated for 72 hrs by MTT assay
Format: functional, cell-based
Run parameters: MDA-MB-231, 72 h
Could you please report measured IC50 for the items listed next?
Answers are plain numbers, in nM.

[
  {
    "Sample smiles": "CNC(=O)c1ccccc1Nc1nc(Nc2ccc(N3CCOCC3)cc2OC)ncc1Cl",
    "Measure": "IC50",
    "Reported value": 1170
  }
]

For every item in the list below, what is its measured IC50?
1. CNC(=O)c1ccccc1Nc1nc(Nc2ccc(CC(=O)OCCCCCCCCOc3no[n+]([O-])c3S(=O)(=O)c3ccccc3)cc2)ncc1Cl
2. CNC(=O)c1ccccc1Nc1nc(Nc2ccc(CC(=O)O)cc2)ncc1Cl
3. CNC(=O)c1ccccc1Nc1nc(Nc2ccc(CC(=O)OCCCCCOc3no[n+]([O-])c3S(=O)(=O)c3ccccc3)cc2)ncc1Cl

[126, 1950, 130]

----------
Test system: MDA-MB-453
Test name: Antiproliferative activity against human MDA-MB-453 cells assessed as inhibition of cell proliferation incubated for 72 hrs by MTT assay
Type: functional, cell-based
Run parameters: MDA-MB-453, 72 h
Measure: IC50 (nM)
Answers are plain numbers, in nM.

Worked examples follow.
[
  {
    "Compound": "CNC(=O)c1ccccc1Nc1nc(Nc2ccc(CC(=O)OCCCCCCCOc3no[n+]([O-])c3S(=O)(=O)c3ccccc3)cc2)ncc1Cl",
    "IC50 / nM": 246
  },
  {
    "Compound": "CNC(=O)c1ccccc1Nc1nc(Nc2ccc(CC(=O)OCC(C)COc3no[n+]([O-])c3S(=O)(=O)c3ccccc3)cc2)ncc1Cl (stereo not given)",
    "IC50 / nM": 255
  },
  {
    "Compound": "CNC(=O)c1ccccc1Nc1nc(Nc2ccc(CC(=O)OCCCCCCCCOc3no[n+]([O-])c3S(=O)(=O)c3ccccc3)cc2)ncc1Cl",
    "IC50 / nM": 159
  },
  {
    "Compound": "CNC(=O)c1ccccc1Nc1nc(Nc2ccc(CC(=O)OCCCCCOc3no[n+]([O-])c3S(=O)(=O)c3ccccc3)cc2)ncc1Cl",
    "IC50 / nM": 221
  }
]

Could you now look at the following compound, please?
Tell us which IC50 value is on record for `CNC(=O)c1ccccc1Nc1nc(Nc2ccc(N3CCOCC3)cc2OC)ncc1Cl`
1220

----------
Measured on: Focal adhesion kinase 1 (Homo sapiens, UniProt Q05397)
Sequence (Q05397 whole entry): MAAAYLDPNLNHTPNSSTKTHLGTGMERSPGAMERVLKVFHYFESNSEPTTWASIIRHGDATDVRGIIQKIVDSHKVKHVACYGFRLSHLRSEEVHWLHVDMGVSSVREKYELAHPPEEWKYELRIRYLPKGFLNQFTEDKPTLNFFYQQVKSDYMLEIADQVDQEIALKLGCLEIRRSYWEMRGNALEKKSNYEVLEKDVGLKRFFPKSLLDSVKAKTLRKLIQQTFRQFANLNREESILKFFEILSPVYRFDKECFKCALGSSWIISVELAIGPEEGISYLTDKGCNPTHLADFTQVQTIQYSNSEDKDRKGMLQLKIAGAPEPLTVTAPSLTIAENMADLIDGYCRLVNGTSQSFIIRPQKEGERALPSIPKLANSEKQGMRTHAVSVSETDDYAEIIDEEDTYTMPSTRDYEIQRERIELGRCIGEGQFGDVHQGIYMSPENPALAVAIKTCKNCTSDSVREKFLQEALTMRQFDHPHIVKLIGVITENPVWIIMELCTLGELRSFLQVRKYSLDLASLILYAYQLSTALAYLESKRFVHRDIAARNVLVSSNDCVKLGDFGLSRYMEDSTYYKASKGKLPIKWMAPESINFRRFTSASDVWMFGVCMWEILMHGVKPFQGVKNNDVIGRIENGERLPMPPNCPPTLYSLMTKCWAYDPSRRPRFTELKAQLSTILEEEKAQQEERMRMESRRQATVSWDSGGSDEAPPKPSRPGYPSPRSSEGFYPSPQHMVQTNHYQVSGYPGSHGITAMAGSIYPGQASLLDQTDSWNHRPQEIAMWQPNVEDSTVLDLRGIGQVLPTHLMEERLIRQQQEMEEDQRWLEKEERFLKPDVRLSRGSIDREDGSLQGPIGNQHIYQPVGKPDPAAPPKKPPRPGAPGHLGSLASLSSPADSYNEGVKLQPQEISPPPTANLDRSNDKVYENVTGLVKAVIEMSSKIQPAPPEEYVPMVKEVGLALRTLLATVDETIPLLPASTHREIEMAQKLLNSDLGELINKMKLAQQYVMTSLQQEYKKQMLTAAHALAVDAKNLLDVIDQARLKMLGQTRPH
Measure: IC50

Worked examples follow.
[
  {
    "Molecule": "CNC(=O)c1ccccc1Nc1nc(Nc2ccc(CC(=O)OCC(C)COc3no[n+]([O-])c3S(=O)(=O)c3ccccc3)cc2)ncc1Cl (stereo not drawn)",
    "IC50": "66 nM"
  },
  {
    "Molecule": "CNC(=O)c1ccccc1Nc1nc(Nc2ccc(CC(=O)OCCCCCCCCOc3no[n+]([O-])c3S(=O)(=O)c3ccccc3)cc2)ncc1Cl",
    "IC50": "27.4 nM"
  }
]

Could you now look at the following molecule, please?
Tell us which IC50 value is on record for `CNC(=O)c1ccccc1Nc1nc(Nc2ccc(CC(=O)OCCCCCOc3no[n+]([O-])c3S(=O)(=O)c3ccccc3)cc2)ncc1Cl`
107 nM

----------
System: MDA-MB-231
Test name: Antiproliferative activity against human MDA-MB-231 cells assessed as inhibition of cell proliferation incubated for 72 hrs in presence of 2-(4-((5-chloro-4-((2-(methylcarbamoyl)phenyl)amino)pyrimidin-2-yl)amino)phenyl)acetic acid by MTT assay
Type: functional, cell-based
Run parameters: MDA-MB-231, 72 h
Measure: IC50 (µM)
Numbers only, in µM.

Tell us which IC50 value is on record for `O=S(=O)(c1ccccc1)c1c(OCCCCCCCCO)no[n+]1[O-]`
1.22

----------
Test name: Selectivity index, ratio of IC50 for human MCF-10A cells to IC50 for human MDA-MB-231 cells
Format: toxicity
Run parameters: MCF-10A cells versus MDA-MB-231 cells, read-out: Ratio IC50
Measure: selectivity ratio

Tell us which selectivity ratio value is on record for `CNC(=O)c1ccccc1Nc1nc(Nc2ccc(CC(=O)OCCCCCCCCOc3no[n+]([O-])c3S(=O)(=O)c3ccccc3)cc2)ncc1Cl`
19.1

----------
Test system: MDA-MB-231
Test name: Antiproliferative activity against human MDA-MB-231 cells assessed as inhibition of cell proliferation incubated for 72 hrs in presence of 4-((8-hydroxyoctyl)oxy)-3-(phenylsulfonyl)-1,2,5-oxadiazole 2-oxide by MTT assay
Format: functional, cell-based
Run parameters: MDA-MB-231, 72 h
Measure: pIC50
One number for each entry, as −log10 of the molar value.

Tell us which pIC50 value is on record for `CNC(=O)c1ccccc1Nc1nc(Nc2ccc(CC(=O)O)cc2)ncc1Cl`
5.91

----------
Test system: MDA-MB-231
Test name: Antiproliferative activity against human MDA-MB-231 cells assessed as inhibition of cell proliferation incubated for 72 hrs by MTT assay
Assay type: functional, cell-based
Run parameters: MDA-MB-231, 72 h
Measure: IC50 (nM)
Answers are plain numbers, in nM.

[
  {
    "Compound": "CNC(=O)c1ccccc1Nc1nc(Nc2ccc(CC(=O)OCC(C)COc3no[n+]([O-])c3S(=O)(=O)c3ccccc3)cc2)ncc1Cl (stereo not drawn)",
    "Measured on": "MDA-MB-231",
    "IC50 / nM": 225
  },
  {
    "Compound": "CNC(=O)c1ccccc1Nc1nc(Nc2ccc(CC(=O)OCCCCCCCOc3no[n+]([O-])c3S(=O)(=O)c3ccccc3)cc2)ncc1Cl",
    "Measured on": "MDA-MB-231",
    "IC50 / nM": 129
  }
]

Could you now look at the following compound, please?
Tell us which IC50 value is on record for `O=S(=O)(c1ccccc1)c1c(OCCCCCCCCO)no[n+]1[O-]`
1500

----------
Test name: Cytotoxicity against human MCF-10A cells assessed as inhibition of cell proliferation incubated for 72 hrs by MTT assay
Type: toxicity, cell-based
Could you please report measured IC50 at 72 h for the items listed next?
One number for each entry, in µM.

[
  {
    "Sample smiles": "CNC(=O)c1ccccc1Nc1nc(Nc2ccc(N3CCOCC3)cc2OC)ncc1Cl",
    "Reported value": 6.47
  }
]

Could you now look at the following compound, please?
Tell us which IC50 at 72 h value is on record for `CNC(=O)c1ccccc1Nc1nc(Nc2ccc(CC(=O)OCCCCCCCCOc3no[n+]([O-])c3S(=O)(=O)c3ccccc3)cc2)ncc1Cl`
2.4
